# credit: ChEMBL document CHEMBL1201862

Tested on: SNB-19
test.summary: NCI tumour cell line growth inhibition, 48 h
The source made the active and inactive calls. Rule as the data show it: active = GI50 up to about 1.1 µM and inactive = higher.
API: response.call in yes (active), no (inactive)

Reference set (3 entries):
compound | target.of.assay | discrete.label
c1ccc(C/C(=N\Nc2nc3ccccc3[nH]2)c2ccccn2)cc1 | SNB-19 | yes
N#Cc1c2ccc([N+](=O)[O-])cc2c(=O)n2c1sc1ccc(C(F)(F)F)cc12 | SNB-19 | no
COC1=CC(=O)C[C@@H](C)[C@]12Oc1c(Cl)c(OC)cc(OC)c1C2=O [GRISEOFULVIN] | SNB-19 | no

[Q] # outcome recorded in this test, key = `CN1C=Cc2nccc3cc4c(c1c23)OCO4`
[A] no

[Q] Please give the result for `Cc1c2cc[n+](C)cc2c(C)c2c1[nH]c1ccc(O)c(OCC(F)(F)F)c12` too.
[A] yes

[Q] Same read-out for `CC[C@H]1CC(=O)c2c(cc3c(c2O)C(=O)c2ccccc2C3=O)[C@@]1(C#N)C(=O)OC(C)(C)C` ?
[A] no

[Q] Same lookup for `S=c1nc(N/N=C/c2cccs2)c2cn[nH]c2[nH]1` , please.
[A] no
